Listing of recorded inhibition index by entry.
molecular target: human acidic fibroblast growth factor (FGF-1) (Homo sapiens, UniProt P05230); assay: FGF-1 thermal aggregation (turbidity at 360 nm); assay type: biochemical; settings: FGF-1 50 μg/mL, 50° C.; compound 1,000×; standard deviation in parenthesis
Sequence (P05230 whole entry): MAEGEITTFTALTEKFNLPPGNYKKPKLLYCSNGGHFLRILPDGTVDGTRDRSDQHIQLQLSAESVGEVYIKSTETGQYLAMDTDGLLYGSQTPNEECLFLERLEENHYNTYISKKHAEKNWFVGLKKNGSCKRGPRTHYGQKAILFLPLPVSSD

Known results for molecules:
In [3]: df
Out[3]:
                                   molecule     result
0            NCCCCCCCN [1,7-diaminoheptane]  2.0 (0.7)
1  Cl.N=C(N)N [guanidine HCl, guanidine hydrochloride]  1.2 (0.2)
2  O=C([O-])CC(=O)[O-].[Na+].[Na+] [malonate, sodium malonate]  2.2 (0.4)

What value of measured inhibition index is listed for NCC(=O)O [glycine] ?
1.3 (0.3)

What value of measured inhibition index is listed for O=C(O)CCCCCC(=O)O [pimelate, pimelic acid] ?
3.1 (1.0)

What value of measured inhibition index is listed for NCCCCCCC(=O)O [7-aminoheptanoate, 7-aminoheptanoic acid] ?
0.9 (0.4)

====

biological target: yeast alcohol dehydrogenase (ADH) (Saccharomyces cerevisiae, UniProt P00330); construct: purchased Sigma; assay: ADH oxidation-induced aggregation (turbidity at 360 nm), Cu(OP)2; type: biochemical; conditions: ADH 1 mg/mL, 37° C., Cu(OP)2; compound 10,000X molar excess; Infinite = complete inhibition of aggregation over one hour
Sequence (P00330 2-348 limits assumed): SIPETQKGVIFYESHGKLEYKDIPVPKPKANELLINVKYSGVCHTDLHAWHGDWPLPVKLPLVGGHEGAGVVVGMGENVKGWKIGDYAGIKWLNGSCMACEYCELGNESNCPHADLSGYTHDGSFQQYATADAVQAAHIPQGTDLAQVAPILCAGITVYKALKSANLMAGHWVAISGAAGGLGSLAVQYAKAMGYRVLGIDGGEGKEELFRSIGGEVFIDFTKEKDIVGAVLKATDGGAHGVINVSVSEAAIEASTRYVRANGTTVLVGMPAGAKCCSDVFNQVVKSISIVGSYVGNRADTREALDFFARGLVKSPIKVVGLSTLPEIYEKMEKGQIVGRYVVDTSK
Residues, ends and D or L forms follow the SMILES beside them.
Listing of recorded inhibition index by entry.

                                   compound        result
0  NCC(=O)NCC(=O)NCC(=O)O [triglycine] (H-Gly-Gly-Gly-OH)  187.6 (46.1)
1  NCCCCC(=O)O [5-aminovalerate, 5-aminovaleric acid]     2.7 (0.9)
2  Cl.N=C(N)N [guanidine HCl, guanidine hydrochloride]     0.2 (0.1)

What value of measured inhibition index is listed for "NCCCN" ?
0.7 (0.1)

What value of measured inhibition index is listed for "NCC(=O)O" ?
54.3 (4.5)

What value of measured inhibition index is listed for "NCCCCCN" ?
0.9 (0.0)

What value of measured inhibition index is listed for O=C(O)CCCCCC(=O)O [pimelate, pimelic acid] ?
9.0 (1.3)

What value of measured inhibition index is listed for O=C(O)CCCC(=O)O [glutarate, glutaric acid] ?
1.8 (0.4)

What value of measured inhibition index is listed for "NCCCCN" ?
0.8 (0.1)

What value of measured inhibition index is listed for "NCCC(=O)O" ?
2.2 (0.3)

====

molecular target: UniProt P05230; test: FGF-1 thermal aggregation (turbidity at 360 nm); assay type: biochemical; settings: FGF-1 50 μg/mL, 50° C.; compound 10,000×; standard deviation in parenthesis
Residues, ends and D or L forms follow the SMILES beside them.
METRIC: inhibition index

Known results for molecules:
>>> df
                                   molecule          target            metric     result
0                                 NCCC(=O)O  UniProt P05230  inhibition index  1.5 (0.5)
1                                     NCCCN  UniProt P05230  inhibition index  3.5 (2.3)
2  NCC(=O)NCC(=O)NCC(=O)O [triglycine] (H-Gly-Gly-Gly-OH)  UniProt P05230  inhibition index  3.1 (0.9)
3                                 NCCCCCCCN  UniProt P05230  inhibition index  6.2 (2.4)
4  NCCCC(=O)O [4-aminobuytrate, 4-aminobutyric acid]  UniProt P05230  inhibition index  1.4 (0.3)

Return inhibition index measured with UniProt P05230 given this molecule: "NCCCCCCN"
27.0 (9.8)

Return inhibition index measured with UniProt P05230 given this molecule: O=C(O)CCCC(=O)O [glutarate, glutaric acid]
10.8 (8.4)

Return inhibition index measured with UniProt P05230 given this molecule: NCCCCCC(=O)O [6-aminocaproate, 6-aminocaproic acid]
2.4 (0.5)

Return inhibition index measured with UniProt P05230 given this molecule: O=C(O)CCCCCCCC(=O)O [azelaate, azelaic acid]
6.1 (2.6)

Return inhibition index measured with UniProt P05230 given this molecule: "NCCCCN"
33.7 (6.6)

====

molecular target: human acidic fibroblast growth factor (FGF-1) (Homo sapiens, UniProt P05230); assay: FGF-1 thermal aggregation (turbidity at 360 nm); format: biochemical; settings: FGF-1 50 μg/mL, 50° C.; compound 1,000×; standard deviation in parenthesis
METRIC: inhibition index

                                   molecule            metric     result
0  O=C(O)CCC(=O)O [succinate, succinic acid]  inhibition index  2.1 (0.4)
1  O=C(O)CCCCCCC(=O)O [suberate, suberic acid]  inhibition index  2.3 (0.5)
2                 N.O=CO [ammonium formate]  inhibition index  0.9 (0.1)
3   O=C(O)CCCCC(=O)O [adipate, adipic acid]  inhibition index  3.0 (0.7)
4  NCCCCCC(=O)O [6-aminocaproate, 6-aminocaproic acid]  inhibition index  2.2 (0.3)
5                                  NCCCCCCN  inhibition index  1.6 (0.6)
6                                 NCCC(=O)O  inhibition index  1.1 (0.2)
7                                     NCCCN  inhibition index  2.2 (0.3)

// moving on: another record for inhibition index
What value of measured inhibition index is listed for NCCCC(=O)O [4-aminobuytrate, 4-aminobutyric acid] ?
1.5 (0.0)

====

Listing of recorded inhibition index by entry.
Target: porcine heart citrate synthase (CS) (Sus scrofa)
Construct: porcine heart citrate synthase (CS); from tissue; host or cells: porcine heart
Sequence (P00889 28-464): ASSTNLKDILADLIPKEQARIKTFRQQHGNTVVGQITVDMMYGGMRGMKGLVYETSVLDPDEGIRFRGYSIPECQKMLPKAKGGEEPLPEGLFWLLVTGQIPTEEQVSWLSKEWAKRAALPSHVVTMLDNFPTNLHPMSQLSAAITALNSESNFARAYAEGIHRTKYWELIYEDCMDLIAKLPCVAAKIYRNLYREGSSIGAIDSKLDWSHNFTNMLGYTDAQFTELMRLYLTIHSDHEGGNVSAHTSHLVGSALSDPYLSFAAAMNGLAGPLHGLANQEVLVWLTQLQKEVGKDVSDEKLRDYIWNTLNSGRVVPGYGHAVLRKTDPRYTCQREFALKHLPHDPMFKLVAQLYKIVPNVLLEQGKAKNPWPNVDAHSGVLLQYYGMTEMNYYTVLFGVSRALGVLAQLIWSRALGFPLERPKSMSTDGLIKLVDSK
Experiment: Citrate synthase thermal aggregation (turbidity at 360 nm)
Format: biochemical
Conditions: CS 96 μg/mL, 45° C.; compound 10,000X; standard deviation in parenthesis

What value of measured inhibition index is listed for NCCCN [1,3-diaminopropane] ?
0.7 (0.3)

What value of measured inhibition index is listed for NCCCCCN [1,5-diaminopentane] ?
0.8 (0.2)

What value of measured inhibition index is listed for O=C(O)CCCCCCC(=O)O [suberate, suberic acid] ?
1.1 (0.2)

What value of measured inhibition index is listed for NCCCCN [1,4-diaminobutane] ?
0.9 (0.3)

What value of measured inhibition index is listed for O=C([O-])CC(=O)[O-].[Na+].[Na+] [malonate, sodium malonate] ?
2.4 (0.5)

What value of measured inhibition index is listed for Cl.N=C(N)N [guanidine HCl, guanidine hydrochloride] ?
0.6 (0.4)

What value of measured inhibition index is listed for NCCCCCCC(=O)O [7-aminoheptanoate, 7-aminoheptanoic acid] ?
0.5 (0.1)

====

molecular target: chicken egg white lysozyme (Gallus gallus); construct: chicken egg white lysozyme [Sigma]; purchased Sigma; host or cells: egg white; assay: Lysozyme aggregation (turbidity at 360 nm) induced by DTT; assay type: biochemical; details: Lysozyme 0.4 mg/mL, 25° C., DTT; compound 1,000×; standard deviation in parenthesis
Sequence (P00698 19-147): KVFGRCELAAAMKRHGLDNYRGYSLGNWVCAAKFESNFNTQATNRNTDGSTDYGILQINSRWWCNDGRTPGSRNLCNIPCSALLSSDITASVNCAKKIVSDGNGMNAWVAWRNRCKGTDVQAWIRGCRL
METRIC: inhibition index

Known results for compounds:
In [3]: df
Out[3]:
                                   compound     result
0                                  NCC(=O)O  1.0 (0.2)
1   O=C(O)CCCCC(=O)O [adipate, adipic acid]  1.4 (0.8)
2  NCCCCC(=O)O [5-aminovalerate, 5-aminovaleric acid]  1.5 (0.4)
3  NCCCCCC(=O)O [6-aminocaproate, 6-aminocaproic acid]  0.8 (0.2)

What value of measured inhibition index is listed for O=C(O)CCCC(=O)O [glutarate, glutaric acid] ?
1.2 (0.3)

What value of measured inhibition index is listed for "NCCCCCCN" ?
1.0 (0.1)

What value of measured inhibition index is listed for O=C(O)CCCCCCC(=O)O [suberate, suberic acid] ?
1.4 (0.2)

These data points were gathered from patent US20030125234A1.
